Tested on: recombinant mouse RBP2
Format: binding
cond: holo-RBP2 incubated with 2 molar excess of compound, room temperature, 15 min
observable: displacement of retinol from its RBP2 binding pocket

[[record]]
compound = "CCCCC/C=C\\C/C=C\\C/C=C\\C/C=C\\CCCC(=O)OC[C@@H](O)CO [1-AG, 1-arachidonoylglycerol]"
target_desc = "recombinant mouse RBP2"
observed_value = "displaced retinol"

[[record]]
compound = "CCCCC/C=C\\C/C=C\\C/C=C\\C/C=C\\CCCC(=O)OC(CO)CO [2-AG, 2-arachidonoylglycerol]"
target_desc = "recombinant mouse RBP2"
observed_value = "displaced retinol"

[[record]]
compound = "CCCCC/C=C\\C/C=C\\CCCCCCCC(=O)OC(CO)CO [2-LG, 2-lineoylglycerol]"
target_desc = "recombinant mouse RBP2"
observed_value = "displaced retinol"


* * *

System: recombinant mouse RBP2
Type: binding
cond: holo-RBP2 incubated with 2 molar excess of compound, room temperature, 15 min
observable: displacement of retinol from its RBP2 binding pocket

[[record]]
compound = "CCCCC/C=C\\C/C=C\\C/C=C\\C/C=C\\CCCC(=O)NCCO [AEA, N-arachidinoylethanolamine]"
observed_value = "little displacement"

[[record]]
compound = "CCCCC/C=C\\C/C=C\\CCCCCCCC(=O)NCCO [LEA, N-linoleoylethanolamine]"
observed_value = "little displacement"

